Test system: HT29 human large intestine cell line
protocol.text: Growth inhibition test (MTT) for cytotoxic properties on tumour cell lines
Assay type: cell-based
assay.context: HT29 cells, growth checked after day 6, read-out: IC50 of the cytotoxic action on tumour cell lines, HT29
Where a SMILES comes first, the peptide text is derived from it. [ ]: non-standard residue; d: D form. The star is where a group is joined. X4 = CO[C@H]1[C@H](O)[C@@H](Oc2ccc(NC(=S)*)cc2)O[C@@H](C)[C@H]1O; X1 = CO[C@H]1[C@@H](O)[C@@H](C)OC(Oc2ccc(NC(=S)*)cc2)[C@H]1O; X2 = CC[C@@]1(O*)C(=O)OCc2c1cc1n(c2=O)Cc2cc3ccccc3nc2-1
// IC50 lookup, one value per entry

- compound: "CC[C@@]1(OC(=O)[C@H](NC(=O)[C@@H](CC(=O)O)NC(=O)[C@@H](CC(C)C)NC(=O)CNC(=O)[C@H](CC(C)C)NC(=O)[C@H]2CCCN2C(=S)Nc2ccc(OC3O[C@H](C)[C@H](O)[C@H](OC)[C@@H]3O)cc2)C(C)C)C(=O)OCc2c1cc1n(c2=O)Cc2cc3ccccc3nc2-1 (stereo partly drawn) [Example 7] (X1-[dP]LG[dL][dD][dV]-X2)"
  IC50: "100 nM"

-- ask Given CC[C@@]1(OC(=O)[C@@H](NC(=O)[C@@H](C)NC(=O)[C@H](CC(C)C)NC(=O)CNC(=O)[C@H](CC(C)C)NC(=O)[C@@H]2CCCN2C(=S)Nc2ccc(O[C@H]3O[C@@H](C)[C@@H](O)[C@@H](OC)[C@@H]3O)cc2)C(C)C)C(=O)OCc2c1cc1n(c2=O)Cc2cc3ccccc3nc2-1 [Example 14] (X4-PLGL[dA]V-X2) , state its recorded IC50.
-- reply 900 nM

-- ask Given CC[C@@]1(OC(=O)[C@@H](NC(=O)[C@H](CO)NC(=O)[C@H](CC(C)C)NC(=O)CNC(=O)[C@H](CC(C)C)NC(=O)[C@@H]2CCCN2C(=S)Nc2ccc(O[C@H]3O[C@@H](C)[C@@H](O)[C@@H](OC)[C@@H]3O)cc2)C(C)C)C(=O)OCc2c1cc1n(c2=O)Cc2cc3ccccc3nc2-1 [Example 17] (X4-PLGLSV-X2) , state its recorded IC50.
-- reply 70 nM

-- ask Given CC[C@@]1(OC(=O)[C@H](NC(=O)[C@@H](Cc2c[nH]cn2)NC(=O)[C@@H](CC(C)C)NC(=O)CNC(=O)[C@H](CC(C)C)NC(=O)[C@H]2CCCN2C(=S)Nc2ccc(OC3O[C@H](C)[C@H](O)[C@H](OC)[C@@H]3O)cc2)C(C)C)C(=O)OCc2c1cc1n(c2=O)Cc2cc3ccccc3nc2-1.Cl (stereo partly drawn) [Example 3] (X1-[dP]LG[dL][dH][dV]-X2) , state its recorded IC50.
-- reply 50 nM

-- ask Given CC[C@@]1(OC(=O)[C@@H](NC(=O)[C@H](C)NC(=O)[C@H](CC(C)C)NC(=O)CNC(=O)[C@H](CC(C)C)NC(=O)[C@@H]2CCCN2C(=S)Nc2ccc(O[C@H]3O[C@@H](C)[C@@H](O)[C@@H](OC)[C@@H]3O)cc2)C(C)C)C(=O)OCc2c1cc1n(c2=O)Cc2cc3ccccc3nc2-1 [Example 22] (X4-PLGLAV-X2) , state its recorded IC50.
-- reply 70 nM

-- ask Given CC[C@@]1(OC(=O)[C@@H](NC(=O)[C@@H](NC(=O)[C@H](CC(C)C)NC(=O)CNC(=O)[C@H](CC(C)C)NC(=O)[C@@H]2CCCN2C(=S)Nc2ccc(O[C@H]3O[C@@H](C)[C@@H](O)[C@@H](OC)[C@@H]3O)cc2)C(C)C)C(C)C)C(=O)OCc2c1cc1n(c2=O)Cc2cc3ccccc3nc2-1 [Example 15] (X4-PLGLVV-X2) , state its recorded IC50.
-- reply 100 nM

Just for reference, patent US20020173452A1 is where these values come from.
